system: HeLa; experiment: Cytotoxicity against human HeLa cells assessed as cell death after 48 hrs by MTT assay; format: functional; conditions: read-out: LC50 (the source's name)
# Lookup of reported CC50 keyed by entry
PARAMETER: CC50 (µM)

- COc1ccc(-c2nc3ccccn3c2Nc2cc(OC)c(OC)c(OC)c2)cc1O: 10
- COc1ccc(Nc2c(-c3cc(OC)c(OC)c(OC)c3)nc3ccccn23)cc1: 5
- COc1cc(Nc2c(C3C=Nc4ccccc43)nc3cnccn23)cc(OC)c1OC (stereo not drawn): 9

----------
target: Tubulin; test: Inhibition of tubulin polymerization in HEK293T cell lysate after 15 mins by spectrophotometry; conditions: hek-293t
pIC50: −log10 of the molar value.
# Lookup of reported pIC50 keyed by entry
PARAMETER: pIC50

• COc1cc(-c2nc3cnccn3c2Nc2cc(OC)c(OC)c(OC)c2)cc(OC)c1O = 4.47
• COc1ccc(Nc2c(-c3ccc(OC)c(O)c3)nc3ncccn23)cc1 = 4.27
• COc1ccc(Nc2c(-c3cccc(O)c3)nc3ccccn23)cc1 = 4.38
• COc1ccc(-c2nc3cccc(C)n3c2Nc2cc(OC)c(OC)c(OC)c2)cc1O = 4.42
• COc1ccc(Nc2c(-c3cc(OC)c(OC)c(OC)c3)nc3ccccn23)cc1 = 4.85
• COc1cc(Nc2c(-c3cccc(O)c3)nc3cnccn23)cc(OC)c1OC = 4.41
• COc1ccc(Nc2c(-c3ccc(Cl)cc3)nc3cnccn23)cc1 = 4.34
